Tgt: Heat shock protein HSP90 (Homo sapiens, UniProt P07900+P08238)
Test Summary: Binding affinity to recombinant human N-terminal truncated HSP90 (9 to 236 residues) expressed in Escherichia coli BL21 (DE3) assessed as on rate constant by biolayer interferometry assay
The source made the active and inactive calls. The calls are words filed in the database; no cut-off is given here.
Outcome Measure: K

- Entry Smiles: "O=S(=O)(Nc1ccc(Nc2ccnc(N3CCNCC3)n2)cc1)c1ccc(Oc2ccccc2)cc1"
  K: "inactive"
- Entry Smiles: "O=S(=O)(Nc1ccc(Nc2ccnc(N3CCNCC3)n2)cc1)c1cccs1"
  K: "inactive"
- Entry Smiles: "CC(C)c1cc(C(C)C)c(S(=O)(=O)Nc2ccc(Nc3ccnc(N4CCNCC4)n3)cc2)c(C(C)C)c1"
  K: "inactive"
- Entry Smiles: "CCCCc1ccc(S(=O)(=O)Nc2ccc(Nc3ccnc(N4CCNCC4)n3)cc2)cc1.Cl"
  K: "1.04 10^4/Ms"

Data request: Give the value of K reported for the following: `Cl.O=S(=O)(Nc1ccc(Nc2ccnc(N3CCNCC3)n2)cc1)c1ccc2c(c1)CCO2`
Data returned: 3.02 10^3(1/Ms)

---

Tgt: Heat shock protein HSP90 (Homo sapiens, UniProt P07900+P08238)
Test Summary: Binding affinity to recombinant human N-terminal truncated HSP90 (9 to 236 residues) expressed in Escherichia coli BL21 (DE3) assessed as on rate constant by biolayer interferometry assay
Activity calls are given as the source filed them. No cut-off for these calls is given here.
Outcome Measure: K

Known K results, listed for orientation:
- Entry Smiles: "CCCc1ccc(S(=O)(=O)Nc2ccc(Nc3ccnc(N4CCNCC4)n3)cc2)cc1.Cl"
  K: "3.17 10^3(1/Ms)"
- Entry Smiles: "O=S(=O)(Nc1ccc(Nc2ccnc(N3CCNCC3)n2)cc1)c1ccc(Br)cc1"
  K: "inactive"
- Entry Smiles: "Cl.Cn1cnc(S(=O)(=O)Nc2ccc(Nc3ccnc(N4CCNCC4)n3)cc2)c1"
  K: "inactive"
- Entry Smiles: "Cc1c(C)c(S(=O)(=O)Nc2ccc(Nc3ccnc(N4CCNCC4)n3)cc2)c(C)c2c1OC(C)(C)C2.Cl"
  K: "2.03 10^4/Ms"
- Entry Smiles: "N#Cc1ccc(S(=O)(=O)Nc2ccc(Nc3ccnc(N4CCNCC4)n3)cc2)cc1"
  K: "inactive"
- Entry Smiles: "O=S(=O)(Nc1ccc(Nc2ccnc(N3CCNCC3)n2)cc1)c1ccc(F)cc1"
  K: "inactive"
- Entry Smiles: "Cc1ccc(S(=O)(=O)Nc2ccc(Nc3ccnc(N4CCNCC4)n3)cc2)cc1"
  K: "inactive"
- Entry Smiles: "CCc1ccc(S(=O)(=O)Nc2ccc(Nc3ccnc(N4CCNCC4)n3)cc2)cc1"
  K: "inactive"

Please find the next molecule below.
Data request: Give the value of K reported for the following: `Cl.O=S(=O)(Nc1ccc(Nc2ccnc(N3CCNCC3)n2)cc1)c1ccc(-c2ccccc2)cc1`
Data returned: 6.1 10^3(1/Ms)

---

Tgt: Heat shock protein HSP90 (Homo sapiens, UniProt P07900+P08238)
Test Summary: Binding affinity to recombinant human N-terminal truncated HSP90 (9 to 236 residues) expressed in Escherichia coli BL21 (DE3) assessed as off rate constant by biolayer interferometry assay
Calls of active or inactive are those of the source. No cut-off for these calls is given here.
Outcome Measure: K

Known K results, listed for orientation:
- Entry Smiles: "Cl.O=S(=O)(Nc1ccc(Nc2ccnc(N3CCNCC3)n2)cc1)c1ccc(-c2ccccc2)cc1"
  K: "0.112 s⁻¹"
- Entry Smiles: "Cc1c(C)c(S(=O)(=O)Nc2ccc(Nc3ccnc(N4CCNCC4)n3)cc2)c(C)c2c1OC(C)(C)C2.Cl"
  K: "0.112 s⁻¹"
- Entry Smiles: "Cc1ccc(S(=O)(=O)Nc2ccc(Nc3ccnc(N4CCNCC4)n3)cc2)cc1"
  K: "inactive"
- Entry Smiles: "CCc1ccc(S(=O)(=O)Nc2ccc(Nc3ccnc(N4CCNCC4)n3)cc2)cc1"
  K: "inactive"
- Entry Smiles: "CCOC(=O)c1ccc(S(=O)(=O)Nc2ccc(Nc3ccnc(N4CCNCC4)n3)cc2)cc1.Cl"
  K: "0.182 s⁻¹"
- Entry Smiles: "CCCc1ccc(S(=O)(=O)Nc2ccc(Nc3ccnc(N4CCNCC4)n3)cc2)cc1.Cl"
  K: "0.0366 s⁻¹"
- Entry Smiles: "O=S(=O)(Nc1ccc(Nc2ccnc(N3CCNCC3)n2)cc1)c1ccc(OCc2ccccc2)cc1"
  K: "inactive"
- Entry Smiles: "O=S(=O)(Nc1ccc(Nc2ccnc(N3CCNCC3)n2)cc1)c1cccs1"
  K: "inactive"

Please find the next compound below.
Data request: State recorded K with Heat shock protein HSP90 (Homo sapiens, UniProt P07900+P08238), entry `CCCCc1ccc(S(=O)(=O)Nc2ccc(Nc3ccnc(N4CCNCC4)n3)cc2)cc1.Cl` , no comment.
Data returned: 0.121 s⁻¹
